experiment: In vitro cytotoxicity assay (MTT cell viability) in HepG2 cells; format: cell-based, human; settings: human
Readout Label: CC50 at 7 days

CCc1c(C(=O)Nc2ccc(F)c(C)c2)c(C)c(C(=O)C(=O)N[C@H]2CC[C@@H](O)CC2)n1C	5 to 30 µM
COC(=O)c1cc(NC(=O)c2c(C)c(C(=O)C(=O)NC(C)(C)C)n(C)c2C)ccc1F	> 30 µM
Cc1c(C(=O)Nc2ccc(F)c(C3CC3)c2)c(C)n(C)c1C(=O)C(=O)NC(C)(C)C	> 30 µM
Cc1c(C(=O)Nc2ccc(N3CCOCC3)nc2)c(C)n(C)c1C(=O)C(=O)NC(C)(C)C	> 30 µM
Cc1c(C(=O)Nc2ccc(B(O)O)cc2)c(C)n(C)c1C(=O)C(=O)NC(C)(C)C	> 30 µM
Cc1cc(NC(=O)c2c(C)c(C(=O)C(=O)N[C@]3(C)C[C@H](O)C3)n(C)c2C2CCCCC2)ccc1F	> 30 µM

Asked: // CC50 at 7 days lookup, key: Cc1cc(NC(=O)c2c(C)c(C(=O)C(=O)N[C@]3(C)C[C@H](O)C3)n(C)c2CC2CC2)ccc1F
Given back: > 30 µM
